target: EHMT1 (Homo sapiens, UniProt Q9H9B1); assay: EHMT1 PEP (EHMT1 peptide enzyme assay); assay type: biochemical; settings: peptide substrate enzyme assay
Sequence (Q9H9B1 whole entry): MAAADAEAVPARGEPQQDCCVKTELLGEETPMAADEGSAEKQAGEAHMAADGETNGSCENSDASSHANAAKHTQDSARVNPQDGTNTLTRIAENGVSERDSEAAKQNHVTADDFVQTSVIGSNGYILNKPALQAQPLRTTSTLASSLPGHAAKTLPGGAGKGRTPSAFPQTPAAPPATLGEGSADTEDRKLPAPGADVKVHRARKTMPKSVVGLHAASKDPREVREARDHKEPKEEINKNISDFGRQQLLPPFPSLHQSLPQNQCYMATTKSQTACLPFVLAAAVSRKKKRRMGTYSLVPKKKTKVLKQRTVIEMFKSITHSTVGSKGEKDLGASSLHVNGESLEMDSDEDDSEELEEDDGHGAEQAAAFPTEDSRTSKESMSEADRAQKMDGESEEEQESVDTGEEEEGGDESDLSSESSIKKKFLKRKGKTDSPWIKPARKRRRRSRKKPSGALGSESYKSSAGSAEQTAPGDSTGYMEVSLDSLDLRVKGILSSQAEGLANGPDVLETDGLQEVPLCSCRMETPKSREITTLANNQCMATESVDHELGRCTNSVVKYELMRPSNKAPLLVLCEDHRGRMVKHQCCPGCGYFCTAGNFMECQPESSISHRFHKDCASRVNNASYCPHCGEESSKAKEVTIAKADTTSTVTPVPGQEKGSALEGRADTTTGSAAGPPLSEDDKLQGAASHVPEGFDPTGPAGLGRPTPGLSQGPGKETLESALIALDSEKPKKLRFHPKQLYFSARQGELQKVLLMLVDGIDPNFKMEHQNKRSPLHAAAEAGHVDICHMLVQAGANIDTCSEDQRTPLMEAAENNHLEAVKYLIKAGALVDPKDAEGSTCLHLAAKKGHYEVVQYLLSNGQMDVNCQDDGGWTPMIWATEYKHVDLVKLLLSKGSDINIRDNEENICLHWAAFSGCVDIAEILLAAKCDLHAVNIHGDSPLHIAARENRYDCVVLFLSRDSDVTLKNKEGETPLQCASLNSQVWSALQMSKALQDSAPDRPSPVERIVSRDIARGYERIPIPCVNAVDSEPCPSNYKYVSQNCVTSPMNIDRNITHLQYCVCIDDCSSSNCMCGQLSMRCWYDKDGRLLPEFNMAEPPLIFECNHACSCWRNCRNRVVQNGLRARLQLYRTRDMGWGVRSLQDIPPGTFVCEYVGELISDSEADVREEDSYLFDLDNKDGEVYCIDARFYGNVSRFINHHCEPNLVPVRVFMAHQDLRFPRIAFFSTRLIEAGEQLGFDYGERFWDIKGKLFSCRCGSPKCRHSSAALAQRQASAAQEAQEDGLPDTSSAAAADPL
// IC50 lookup, one value per entry
Parameter: IC50

Compound	Recorded measurement
CNc1cc(C)nc(Nc2ccc(F)c(-n3cc(CN4CCC4)cn3)c2F)n1	0.1 to 1 µM
CNc1cc(C)nc(Nc2ccc(OC)c(-c3cc4ccncc4[nH]3)c2)n1	< 0.1 µM
CNCc1cnn(-c2cc(Nc3nc(C)cc(NC)n3)ccc2Br)c1	< 0.1 µM
COc1ncc(Nc2nc(C)cc(NCC3COC3)n2)cc1-n1cc(CN(C)C)nn1	> 10 µM
COc1cc2c(cc1-n1cc(C3CCCN3)nn1)N=C(N)C21CCC1 (centres unmarked)	< 0.1 µM

====

// IC50 lookup, one value per entry
molecular target: recombinant purified human EHMT2 913-1193 (Homo sapiens, UniProt Q96KQ7); construct: Recombinant purified human EHMT2 913-1193 (55 μM) synthesized by Viva was used for all experiments; purchased Viva; assay: EHMT2 enzyme assay on histone peptide substrate (3H-SAM Flashplate); assay type: biochemical; conditions: read-out: EHMT2 PEP (IC50 μM)
Sequence (Q96KQ7 913-1193): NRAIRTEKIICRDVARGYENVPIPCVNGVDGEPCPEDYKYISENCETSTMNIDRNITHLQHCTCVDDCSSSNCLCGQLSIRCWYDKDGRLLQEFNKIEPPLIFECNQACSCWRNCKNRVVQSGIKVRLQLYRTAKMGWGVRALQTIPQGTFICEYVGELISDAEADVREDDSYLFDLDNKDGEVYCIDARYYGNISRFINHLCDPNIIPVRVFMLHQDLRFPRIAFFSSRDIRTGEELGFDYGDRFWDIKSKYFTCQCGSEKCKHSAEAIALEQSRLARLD
Where a name gives a salt, the structure may show the parent alone.

Molecule	IC50
CNc1cc(C)nc(Nc2ccc(Cl)c(-c3cc4[nH]ccc4cn3)c2)n1	< 0.1 µM
CNC1=Nc2cc(-n3cc(CN4CCC4)cn3)c(OC)cc2C12CCC2	< 0.1 µM
CNC1=Nc2cc(-n3cc(C4CCCN4)cn3)c(Cl)cc2C12CCC2 (stereo not drawn)	< 0.1 µM
CNCc1cn(-c2cc(Nc3nc(C)cc(NC)n3)ccc2OC)nc1F	< 0.1 µM
CNc1cc(C)nc(Nc2ccc(OC)c(-n3cc(CN4CCC4)nn3)c2)n1	0.1 to 1 µM
CNc1cc(C)nc(Nc2ccc(OC)c(-c3ccc4cc[nH]c4n3)c2)n1	> 10 µM
CNc1cc(C)nc(Nc2ccc(OC)c(-c3[nH]c4cnccc4c3F)c2)n1	< 0.1 µM
CNc1cc(C)nc(Nc2ccc(OC)c(-c3[nH]c4cnccc4c3C#N)c2)n1	1 to 10 µM
CNc1cc(C)nc(Nc2ccc(OC)c(-n3cc([C@H]4CCCN4)nn3)c2)n1	0.1 to 1 µM
CNc1cc(C)nc(Nc2ccc(OC)c(-c3cc4[nH]cc(F)c4cn3)c2)n1	0.1 to 1 µM
CNCc1cnn(-c2c(F)ccc(Nc3nc(C)cc(NC)n3)c2OC)c1	0.1 to 1 µM
CNc1cc(C)nc(Nc2ccc(OC)c(-n3cc4c(n3)CNCC4)c2)n1 [Compound 22, hydrochloride]	> 10 µM
CNc1cc(C)nc(Nc2cc(-n3cc4c(n3)CCN(C)C4)c(OC)cn2)n1	> 10 µM
CNc1cc(C)nc(Nc2ccc(OC)c(-n3cc4cc(Br)ccc4n3)c2)n1	1 to 10 µM
COc1cc2c(cc1-c1cc3[nH]ccc3cn1)N=C(NCC(N)=O)C21CCC1	1 to 10 µM
CNc1cc(C)nc(Nc2ccc(OC)c(-c3cc4ncncc4[nH]3)c2)n1	1 to 10 µM
CNc1cc(C)nc(Nc2cnc(OC)c(-c3nc4cnccn4n3)c2)n1	> 10 µM
CNc1cc(C)nc(Nc2ccc(OC)c(-n3ncc4ncccc43)c2)n1	> 10 µM
